# reported glycan array binding signal (z-score); entries follow
Target: Neu5Ac(a2-3)Gal(b1-4)[Fuc(a1-3)]GlcNAc6S
Test: glycan array binding signal (z-score within array); higher = stronger binding
Details: glycan notation: IUPAC condensed, linker removed
The full list was thinned out, with the strongest signals kept by preference.
recorded metric: glycan array binding signal (z-score)

1. AT3G44510(29) (Arabidopsis thaliana), F4J341 (protein) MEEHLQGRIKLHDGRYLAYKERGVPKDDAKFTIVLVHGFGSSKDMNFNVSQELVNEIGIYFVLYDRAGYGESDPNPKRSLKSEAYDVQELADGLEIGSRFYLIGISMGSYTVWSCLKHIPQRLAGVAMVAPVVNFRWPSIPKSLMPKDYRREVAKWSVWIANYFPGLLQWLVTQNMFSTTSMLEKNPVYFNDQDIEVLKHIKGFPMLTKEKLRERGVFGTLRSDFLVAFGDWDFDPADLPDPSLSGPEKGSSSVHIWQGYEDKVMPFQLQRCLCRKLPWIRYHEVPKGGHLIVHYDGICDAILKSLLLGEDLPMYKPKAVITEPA
0.419
2. CML1 (Coprinopsis cinerea) (protein) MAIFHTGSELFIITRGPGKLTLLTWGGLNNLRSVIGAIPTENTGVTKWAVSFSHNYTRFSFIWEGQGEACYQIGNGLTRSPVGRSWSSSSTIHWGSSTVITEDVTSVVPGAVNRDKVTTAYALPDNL
4.04
3. Erv46-EDTA (Saccharomyces cerevisiae), P39727 (protein) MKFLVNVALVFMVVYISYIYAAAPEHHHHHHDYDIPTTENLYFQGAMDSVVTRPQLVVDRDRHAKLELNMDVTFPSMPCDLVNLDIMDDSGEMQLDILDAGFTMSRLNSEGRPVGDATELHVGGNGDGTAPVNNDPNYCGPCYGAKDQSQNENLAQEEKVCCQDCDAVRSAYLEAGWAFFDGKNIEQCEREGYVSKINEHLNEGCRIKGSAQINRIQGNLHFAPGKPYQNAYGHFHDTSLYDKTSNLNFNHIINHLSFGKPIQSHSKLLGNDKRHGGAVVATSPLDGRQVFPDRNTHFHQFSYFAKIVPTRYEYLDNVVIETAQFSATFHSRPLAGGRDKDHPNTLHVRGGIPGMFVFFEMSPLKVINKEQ
-0.585
4. CCL2 (Coprinopsis cinerea), B3GA02 (protein) MDSPAVTLSAGNYIIYNRVLSPRGEKLALTYPGRQRTPVTVSPLDGSSEQAWILRSYDSNSNTWTISPVGSPNSQIGWGAGNVPVVLPPNNYVWTLTLTSGGYNIQDGKRTVSWSLNNATAGEEVSIGADATFSGRWVIEKV
4.45
